System: NIH3T3
Experiment: Cytotoxic Profiling of Annotated Libraries Using Quantitative High-Throughput Screening (AID 1296008); further: nearly all actives have a fitted effect of over 60% in size
Settings: Five cell lines viability, CellTiter-Glo ATP luminescence, 48-72 h
Results filed as inconclusive are left out. Activity calls are given as the source filed them. The call rests on the fitted dose curve; in most records, active means well fitted inhibition curve with a large enough effect; inconclusive means small, poorly fitted or top-dose-only effect; inactive means flat fitted curve, though single readings scatter.

- Smiles Notation: "COc1cccc(OC)c1-c1nc(C(=O)N[C@@H](CC(C)C)C(=O)O)cn1-c1ccnc2cc(Cl)ccc12"
  Tested System: "NIH3T3"
  outcome: "inactive"
- Smiles Notation: "Cc1ccc(C)c(NC(=O)CNS(=O)(=O)c2ccc3[nH]c(=O)oc3c2)c1"
  Tested System: "NIH3T3"
  outcome: "inactive"
- Smiles Notation: "CCN=C1N[C@@H]2[C@@H](O)[C@H](O)[C@@H](CO)O[C@@H]2S1"
  Tested System: "NIH3T3"
  outcome: "inactive"
- Smiles Notation: "C[C@]1(OC(=O)/C=C/c2ccccc2)C[C@@H](O)[C@]2(O)C=CO[C@@H](O[C@@H]3O[C@H](CO)[C@@H](O)[C@H](O)[C@H]3O)[C@@H]21"
  Tested System: "NIH3T3"
  outcome: "inactive"

Origin of values: PubChem BioAssay (NCATS)
